Tested on: Klebsiella pneumoniae
Experiment: Antibacterial activity against Klebsiella pneumoniae at 200 ug/disk after 24 hrs by agar disc-diffusion method
Assay type: functional
Details: read-out: IZ
Observable: zone of inhibition at 200 µg/disc (mm)
Provide only the numeric value, understood in mm.

Answered examples (4):
Molecule	Units label	zone of inhibition at 200 µg/disc
O=C(O)c1cn(C2CC2)c2cc(N3CCNCC3)c(F)cc2c1=O [CIPROFLOXACIN]	mm	42
Nn1c(S)nnc1CS(=O)(=O)c1c[nH]cc1S(=O)(=O)c1ccc(Cl)cc1	mm	28
Cc1ccc(S(=O)(=O)c2c[nH]cc2S(=O)(=O)Cc2nnc(S)s2)cc1	mm	19
O=S(=O)(Cc1nnc(S)s1)c1c[nH]cc1S(=O)(=O)c1ccc(Cl)cc1	mm	28

stdin: Entry `O=S(=O)(Cc1nnc(S)o1)c1c[nH]cc1S(=O)(=O)c1ccccc1` needs its zone of inhibition at 200 µg/disc filled in; supply it.
stdout: 16

---

The reader will find reported zone of inhibition at 200 µg/disc values listed item by item below.
System: Fusarium solani
Assay: Antifungal activity against Fusarium solani at 200 ug/disk after 48 hrs by agar disc-diffusion method
Format: functional
Conditions: read-out: IZ
// units = mm; emit number, no label

Molecule	zone of inhibition at 200 µg/disc, mm
CC(=O)N1CCN(c2ccc(OCC3COC(Cn4ccnc4)(c4ccc(Cl)cc4Cl)O3)cc2)CC1 (stereo not given)	42
Cc1ccc(S(=O)(=O)c2c[nH]cc2S(=O)(=O)Cc2nnc(S)n2N)cc1	33
O=S(=O)(Cc1nnc(S)o1)c1c[nH]cc1S(=O)(=O)c1ccc(Cl)cc1	21
Cc1ccc(S(=O)(=O)c2c[nH]cc2S(=O)(=O)Cc2nnc(S)o2)cc1	19
O=S(=O)(Cc1nnc(S)s1)c1c[nH]cc1S(=O)(=O)c1ccc(Cl)cc1	31
O=S(=O)(Cc1nnc(S)s1)c1c[nH]cc1S(=O)(=O)c1ccccc1	27

stdin: Consider the molecule `Nn1c(S)nnc1CS(=O)(=O)c1c[nH]cc1S(=O)(=O)c1ccc(Cl)cc1` and give its recorded zone of inhibition at 200 µg/disc.
stdout: 40

stdin: Tell me measured zone of inhibition at 200 µg/disc for `Cc1ccc(S(=O)(=O)c2c[nH]cc2S(=O)(=O)Cc2nnc(S)s2)cc1` please.
stdout: 27

stdin: Identify measured zone of inhibition at 200 µg/disc corresponding to `O=S(=O)(Cc1nnc(S)o1)c1c[nH]cc1S(=O)(=O)c1ccccc1`
stdout: 20

stdin: Specify reported zone of inhibition at 200 µg/disc for the molecule shown: `Nn1c(S)nnc1CS(=O)(=O)c1c[nH]cc1S(=O)(=O)c1ccccc1`
stdout: 36

---

Below, each entry is listed alongside its reported MIC.
Tested on: Klebsiella pneumoniae
Experiment: Antibacterial activity against Klebsiella pneumoniae after […] by microdilution susceptibility method
Format: functional
Field format: number, assumed µg/mL, no unit text.

Example entries and their recorded answers appear below.
Compound	Observable	Measurement
O=S(=O)(Cc1nnc(S)s1)c1c[nH]cc1S(=O)(=O)c1ccc(Cl)cc1	MIC	200
O=C(O)c1cn(C2CC2)c2cc(N3CCNCC3)c(F)cc2c1=O [CIPROFLOXACIN]	MIC	6.25
Nn1c(S)nnc1CS(=O)(=O)c1c[nH]cc1S(=O)(=O)c1ccc(Cl)cc1	MIC	50

Then there is this compound:
stdin: Indicate the recorded MIC value for this compound: `Nn1c(S)nnc1CS(=O)(=O)c1c[nH]cc1S(=O)(=O)c1ccccc1`
stdout: 100

---

Test system: Staphylococcus aureus
Experiment: Antibacterial activity against Staphylococcus aureus at 100 ug/disk after 24 hrs by agar disc-diffusion method
Format: functional
Details: read-out: IZ
Observable: zone of inhibition at 100 µg/disc (mm)
Respond with the bare value in mm.

Observe how each entry below is paired with its result.
Smiles code	zone of inhibition at 100 µg/disc / mm
O=S(=O)(Cc1nnc(S)o1)c1c[nH]cc1S(=O)(=O)c1ccc(Cl)cc1	14
Nn1c(S)nnc1CS(=O)(=O)c1c[nH]cc1S(=O)(=O)c1ccccc1	28
O=C(O)c1cn(C2CC2)c2cc(N3CCNCC3)c(F)cc2c1=O	34

stdin: Find the measured zone of inhibition at 100 µg/disc of `O=S(=O)(Cc1nnc(S)o1)c1c[nH]cc1S(=O)(=O)c1ccccc1` with Staphylococcus aureus as test system.
stdout: 12

stdin: Report zone of inhibition at 100 µg/disc under test system Staphylococcus aureus for `O=S(=O)(Cc1nnc(S)s1)c1c[nH]cc1S(=O)(=O)c1ccc(Cl)cc1` .
stdout: 25

stdin: Enter zone of inhibition at 100 µg/disc (test system Staphylococcus aureus) for `Cc1ccc(S(=O)(=O)c2c[nH]cc2S(=O)(=O)Cc2nnc(S)n2N)cc1`
stdout: 24

---

Item-by-item account of MIC
System: Aspergillus niger
Test: Antifungal activity against Aspergillus niger after 48 hrs by microdilution susceptibility method
Format: functional
Entry format: amount then unit.

Compound	Study system	MIC
CC(=O)N1CCN(c2ccc(OCC3COC(Cn4ccnc4)(c4ccc(Cl)cc4Cl)O3)cc2)CC1 (centres undefined) [KETOCONAZOLE]	Aspergillus niger	6.25 µg/mL
Nn1c(S)nnc1CS(=O)(=O)c1c[nH]cc1S(=O)(=O)c1ccccc1	Aspergillus niger	100 µg/mL
O=S(=O)(Cc1nnc(S)s1)c1c[nH]cc1S(=O)(=O)c1ccc(Cl)cc1	Aspergillus niger	200 µg/mL

Query compound follows.
stdin: Report MIC for `Nn1c(S)nnc1CS(=O)(=O)c1c[nH]cc1S(=O)(=O)c1ccc(Cl)cc1`
stdout: 25 µg/mL

---

System: Curvularia lunata
Experiment: Antifungal activity against Curvularia lunata at 100 ug/disk after 48 hrs by agar disc-diffusion method
Assay type: functional
Conditions: read-out: IZ
Lab note: compare zone of inhibition at 100 µg/disc against 20 mm. Equal or greater, write 1.0. Smaller, write 0.0.

Reference set, count: 2
Compound	Assigned category
O=S(=O)(Cc1nnc(S)o1)c1c[nH]cc1S(=O)(=O)c1ccccc1	0.0
Cc1ccc(S(=O)(=O)c2c[nH]cc2S(=O)(=O)Cc2nnc(S)n2N)cc1	1.0

stdin: Does the reported zone of inhibition at 100 µg/disc for `Cc1ccc(S(=O)(=O)c2c[nH]cc2S(=O)(=O)Cc2nnc(S)s2)cc1` fall at or above the 20 mm mark?
stdout: 1.0

stdin: zone of inhibition at 100 µg/disc >= 20 mm for `Nn1c(S)nnc1CS(=O)(=O)c1c[nH]cc1S(=O)(=O)c1ccccc1` ?
stdout: 1.0

stdin: Does `O=S(=O)(Cc1nnc(S)s1)c1c[nH]cc1S(=O)(=O)c1ccccc1` have a reported zone of inhibition at 100 µg/disc of at least 20 mm?
stdout: 1.0

stdin: Is reported zone of inhibition at 100 µg/disc greater than or equal to 20 mm here: `Nn1c(S)nnc1CS(=O)(=O)c1c[nH]cc1S(=O)(=O)c1ccc(Cl)cc1`
stdout: 1.0

stdin: API: above_or_equal(metric=zone of inhibition at 100 µg/disc, cutoff=20 mm) for item CC(=O)N1CCN(c2ccc(OCC3COC(Cn4ccnc4)(c4ccc(Cl)cc4Cl)O3)cc2)CC1 (stereo not given)
stdout: 1.0

stdin: # bool: zone of inhibition at 100 µg/disc of `Cc1ccc(S(=O)(=O)c2c[nH]cc2S(=O)(=O)Cc2nnc(S)o2)cc1` >= 20 mm
stdout: 0.0

stdin: Hi, just wondering whether `O=S(=O)(Cc1nnc(S)o1)c1c[nH]cc1S(=O)(=O)c1ccc(Cl)cc1` shows zone of inhibition at 100 µg/disc of 20 mm or higher.
stdout: 0.0

stdin: State whether the measured zone of inhibition at 100 µg/disc reaches 20 mm, counting equality as reaching it, for `O=S(=O)(Cc1nnc(S)s1)c1c[nH]cc1S(=O)(=O)c1ccc(Cl)cc1`
stdout: 1.0

---

Tested on: Klebsiella pneumoniae
Assay: Antibacterial activity against Klebsiella pneumoniae at 200 ug/disk after 24 hrs by agar disc-diffusion method
Type: functional
Conditions: read-out: IZ
Observable: zone of inhibition at 200 µg/disc

Observe how each entry below is paired with its result.
Smiles code	Study system	zone of inhibition at 200 µg/disc
Nn1c(S)nnc1CS(=O)(=O)c1c[nH]cc1S(=O)(=O)c1ccccc1	Klebsiella pneumoniae	22 mm
Cc1ccc(S(=O)(=O)c2c[nH]cc2S(=O)(=O)Cc2nnc(S)o2)cc1	Klebsiella pneumoniae	13 mm
Cc1ccc(S(=O)(=O)c2c[nH]cc2S(=O)(=O)Cc2nnc(S)n2N)cc1	Klebsiella pneumoniae	23 mm
O=S(=O)(Cc1nnc(S)s1)c1c[nH]cc1S(=O)(=O)c1ccccc1	Klebsiella pneumoniae	21 mm

The record that follows has no zone of inhibition at 200 µg/disc shown yet.
stdin: Please report zone of inhibition at 200 µg/disc for the following compound: `O=S(=O)(Cc1nnc(S)o1)c1c[nH]cc1S(=O)(=O)c1ccc(Cl)cc1`
stdout: 13 mm

---

System: Staphylococcus aureus
Test: Antibacterial activity against Staphylococcus aureus at 100 ug/disk after 24 hrs by agar disc-diffusion method
Type: functional
Details: read-out: IZ
Observable: zone of inhibition at 100 µg/disc (mm)
The reply should contain only the number, in mm.

The following molecules have reported results that may help.
Smiles code	Study system	zone of inhibition at 100 µg/disc (mm)
Nn1c(S)nnc1CS(=O)(=O)c1c[nH]cc1S(=O)(=O)c1ccc(Cl)cc1	Staphylococcus aureus	32
Cc1ccc(S(=O)(=O)c2c[nH]cc2S(=O)(=O)Cc2nnc(S)o2)cc1	Staphylococcus aureus	11
O=S(=O)(Cc1nnc(S)s1)c1c[nH]cc1S(=O)(=O)c1ccccc1	Staphylococcus aureus	18

Switching to the query record.
stdin: Please give the documented zone of inhibition at 100 µg/disc of `Cc1ccc(S(=O)(=O)c2c[nH]cc2S(=O)(=O)Cc2nnc(S)s2)cc1`
stdout: 16

Origin of the recorded values: ChEMBL document CHEMBL1158337
